Measured IC50, listed per entry for reference.
# SYSTEM NAME: human JAK3 kinase domain (JH1) (Homo sapiens, UniProt P52333)
# Construct: recombinantly generated catalytic kinase (also known as JH1) domain of human JAK1, JAK2, JAK3 and TYK2
# Sequence (P52333 822-1111 limits assumed): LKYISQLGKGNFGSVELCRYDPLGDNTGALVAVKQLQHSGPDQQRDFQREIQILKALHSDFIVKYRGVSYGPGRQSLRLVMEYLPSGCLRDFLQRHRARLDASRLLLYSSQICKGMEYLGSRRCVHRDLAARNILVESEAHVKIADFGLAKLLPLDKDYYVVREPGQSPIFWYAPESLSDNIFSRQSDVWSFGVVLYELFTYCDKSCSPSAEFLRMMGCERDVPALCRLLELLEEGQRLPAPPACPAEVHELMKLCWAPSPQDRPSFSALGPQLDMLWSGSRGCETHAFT
# TEST: JH1 biochemical assay for JAK3 (ADP-Glo kinase assay, recombinant JH1 catalytic domain, JAK3-974 peptide, 4 μM ATP)
# RECORDED CONDITIONS: JAK3 JH1, ADP-Glo
Counter-ions that a name gives are not always drawn.

| MOLECULE | IC50 |
| --- | --- |
| C[C@@H]1CN(c2nc(-c3cnn(C)c3)cc3nccn23)C(=O)[C@]1(C#N)C1CC1 | 1000 to 5000 nM |
| C[C@@H]1CN(c2nc(-c3cnn(C4COC4)c3)cn3nccc23)C(=O)[C@]1(C#N)C1CC1 | < 100 nM |
| C[C@@H]1CN(c2cc(-c3cnn(C)c3)cc3ncsc23)C(=O)[C@]1(C#N)C1CC1 | < 100 nM |
| C[C@@H]1CN(c2nc(-c3cnn(C45CC(C#N)(C4)C5)c3)cn3ncc(F)c23)C(=O)[C@]1(C#N)C1CC1 | < 100 nM |
| C[C@@H]1CN(c2nc(-c3cnn([C@H]4C[C@@](C)(O)C4)c3)cn3ncc(F)c23)C(=O)[C@]1(C#N)C1CC1 | < 100 nM |
| CNC(=O)c1ccc(-c2cn3nccc3c(N3C[C@@H](C)[C@@](C#N)(C4CC4)C3=O)n2)cn1 [Example 227, trifluoroacetate] | < 100 nM |
| C[C@@H]1CN(c2nc(-c3ccc4cnn(C)c4c3)cn3nccc23)C(=O)[C@]1(C#N)C1CC1 [Example 259, trifluoroacetate] | < 100 nM |
| C[C@@H]1CN(c2nn(-c3cnn(C4COC4)c3)c3cnccc23)C(=O)[C@]1(C#N)C1CC1 | 100 to 1000 nM |
| C[C@@H]1CN(c2nc(-c3cncc(C(F)(F)F)c3)cn3nccc23)C(=O)[C@]1(C#N)C1CC1 [Example 260, trifluoroacetate] | 1000 to 5000 nM |
| C[C@@H]1CN(c2ccnn3cc(-c4cnn(C5CCN(C)C5)c4)cc23)C(=O)[C@]1(C#N)C1CC1 (some centres unmarked) | < 100 nM |
| C[C@@H]1CN(c2nc(-c3cnn(-c4ccccn4)c3)cn3nccc23)C(=O)[C@]1(C#N)C1CC1 | < 100 nM |
| C[C@@H]1CN(c2ccnn3cc(-c4cn(C5COC5)nc4F)cc23)C(=O)[C@]1(C#N)C1CC1 | 100 to 1000 nM |
| COc1ccc(-c2cn3nccc3c(N3C[C@@H](C)[C@@](C#N)(C4CC4)C3=O)n2)cn1 | 1000 to 5000 nM |
| C[C@@H]1CN(c2ccnn3cc(-c4cnn([C@H]5C[C@@H](C#N)C5)c4)cc23)C(=O)[C@]1(C#N)C1CC1 | < 100 nM |
| Cc1cc(-c2cn3nccc3c(N3C[C@@H](C)[C@@](C#N)(C4CC4)C3=O)n2)ccn1 [Example 241, trifluoroacetate] | 1000 to 5000 nM |
| COc1cncc(-c2cn3nccc3c(N3C[C@@H](C)[C@@](C#N)(C4CC4)C3=O)n2)c1 [Example 244, trifluoroacetate] | 100 to 1000 nM |
| C[C@@H]1CN(c2ccnn3cc(-c4cnn([C@H]5COCC(F)(F)C5)c4)cc23)C(=O)[C@]1(C#N)C1CC1 (single isomer, unassigned) | < 100 nM |

From: patent US20260297085A1
